B1: TRIM43 (parent)
chain: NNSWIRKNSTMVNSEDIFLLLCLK

Variants of: B1
measurement_notes: protein stability index of a GFP-peptide fusion (GPS, HEK-293T) (PSI 1-6); higher = more stable;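 note: lentivirally expressed fusions sorted by FACS into six bins by GFP to DsRed ratio, PSI derived from sequencing read proportions per bin multiplied by bin number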
details: c terminus: a fixed tail appended
Assign a class from recorded protein stability index; defined classes: low band = under 2, middle band = from 2 up to 3, high band = 3 and over

Which class is correct for the following variant? L23P middle band

Which class is correct for the following variant? N13K high band

Which class is correct for the following variant? L23R low band

Which class is correct for the following variant? R6D high band

Which class is correct for the following variant? M11K middle band

Which class is correct for the following variant? L21N low band

Which class is correct for the following variant? L21E high band

Which class is correct for the following variant? E15N middle band

Which class is correct for the following variant? K24S high band

Which class is correct for the following variant? F18E low band

Which class is correct for the following variant? N1D middle band

Which class is correct for the following variant? R6H high band

Which class is correct for the following variant? L20M high band

Which class is correct for the following variant? S3C high band

Which class is correct for the following variant? N13D high band

Which class is correct for the following variant? N2Y high band

Which class is correct for the following variant? N8C middle band

Which class is correct for the following variant? L19N low band

Which class is correct for the following variant? S3T high band

Which class is correct for the following variant? N1S middle band

Which class is correct for the following variant? L23N low band

FYI, the data here is from the supplement of paper PMC10567573.
